assayExplanation: Caspase-3/7 induction in CHO-K1 cells by small molecules, qHTS assay (AID 1346980); further: nearly all actives have a fitted effect of over 15% in size
runParameters: CHO-K1 caspase-3/7 induction, Caspase-Glo luminescence, 17 h; series mostly up to 92.4 µM
Calls of active or inactive are those of the source. The call rests on the fitted dose curve; in most records, active means well fitted activation curve with a large enough effect in the repeat runs; inconclusive means weak or mixed curves; inactive means flat fitted curve, though single readings scatter.
In this exercise, the only acceptable responses are 1 (yes) (active), 0 (no) (inactive)

Task: Record request — test call for N#CCCSCCC#N
Result: 0 (no)

Task: Record request — test call for CCc1cc(C)cc(CC)c1-c1c(OC(=O)C(C)(C)C)n2n(c1=O)CCOCC2
Result: 0 (no)

Task: Record request — test call for CCS(=O)(=O)c1cccnc1S(=O)(=O)NC(=O)Nc1nc(OC)cc(OC)n1
Result: 0 (no)

Task: Record request — test call for N#Cc1c(-c2ccc(Cl)cc2)[nH]c(C(F)(F)F)c1Br
Result: 0 (no)

Task: Record request — test call for O=c1oc2ccccc2c(O)c1Cc1c(O)c2ccccc2oc1=O
Result: 0 (no)

Task: Record request — test call for C[C@]12CC[C@H](O)C[C@H]1CC[C@@H]1[C@@H]2C[C@@H](O)[C@]2(C)[C@@H](C3=CC(=O)OC3)CC[C@]12O
Result: 0 (no)

Task: Record request — test call for O=C(Cl)c1ccc(Cl)cc1
Result: 0 (no)

Task: Record request — test call for Clc1ccc(COC(Cn2ccnc2)c2ccc(Cl)cc2Cl)cc1 (stereo unspecified)
Result: 0 (no)

Task: Record request — test call for CNC(C)Cc1ccc2c(c1)OCO2 (stereo unspecified)
Result: 0 (no)

Task: Record request — test call for CC(C)(C)OO
Result: 0 (no)

Task: Record request — test call for C[As+](C)(C)CC(=O)[O-]
Result: 0 (no)

Task: Record request — test call for CCN
Result: 0 (no)

Task: Record request — test call for Oc1ccc(C(=C(Cl)Cl)c2ccc(O)cc2)cc1
Result: 0 (no)

Task: Record request — test call for CC(C)N1C(=O)N(c2ccccc2)CSC1=NC(C)(C)C
Result: 0 (no)

Task: Record request — test call for O=C1c2ccccc2C(=O)C1C(=O)C(c1ccccc1)c1ccc(Cl)cc1 (stereo unspecified)
Result: 0 (no)

Task: Record request — test call for O=[N+]([O-])c1cc(C(F)(F)F)c(Cl)c([N+](=O)[O-])c1Cl
Result: 1 (yes)

Task: Record request — test call for O=c1c(C2CC(c3ccc(-c4ccc(Br)cc4)cc3)Cc3ccccc32)c(O)sc2ccccc12 (stereo unspecified)
Result: 0 (no)

Task: Record request — test call for CCc1nn(C)c(C(=O)NCc2ccc(C(C)(C)C)cc2)c1Cl
Result: 0 (no)

Task: Record request — test call for O=[N+]([O-])c1c2ccccc2cc2ccccc12
Result: 0 (no)

Task: Record request — test call for O=C1C=CC(=O)c2ccccc21
Result: 0 (no)

Task: Record request — test call for N#C/C=C/C#N
Result: 0 (no)

Task: Record request — test call for CN(CCCC(O)c1cccnc1)N=O (stereo unspecified)
Result: 0 (no)

Task: Record request — test call for COC[C@H](C)N(C(=O)CCl)c1c(C)csc1C
Result: 0 (no)

Task: Record request — test call for Clc1ccc(C(Cl)(Cl)Cl)c(Cl)c1
Result: 0 (no)

Task: Record request — test call for O=C(O)COc1nc(Cl)c(Cl)cc1Cl
Result: 0 (no)

Task: Record request — test call for Oc1cccc(-c2ccccc2)c1
Result: 0 (no)
